Source: patent US20230295200A1

- assay system: STAT6 protein (Homo sapiens)
- Sequence (P42226 whole entry): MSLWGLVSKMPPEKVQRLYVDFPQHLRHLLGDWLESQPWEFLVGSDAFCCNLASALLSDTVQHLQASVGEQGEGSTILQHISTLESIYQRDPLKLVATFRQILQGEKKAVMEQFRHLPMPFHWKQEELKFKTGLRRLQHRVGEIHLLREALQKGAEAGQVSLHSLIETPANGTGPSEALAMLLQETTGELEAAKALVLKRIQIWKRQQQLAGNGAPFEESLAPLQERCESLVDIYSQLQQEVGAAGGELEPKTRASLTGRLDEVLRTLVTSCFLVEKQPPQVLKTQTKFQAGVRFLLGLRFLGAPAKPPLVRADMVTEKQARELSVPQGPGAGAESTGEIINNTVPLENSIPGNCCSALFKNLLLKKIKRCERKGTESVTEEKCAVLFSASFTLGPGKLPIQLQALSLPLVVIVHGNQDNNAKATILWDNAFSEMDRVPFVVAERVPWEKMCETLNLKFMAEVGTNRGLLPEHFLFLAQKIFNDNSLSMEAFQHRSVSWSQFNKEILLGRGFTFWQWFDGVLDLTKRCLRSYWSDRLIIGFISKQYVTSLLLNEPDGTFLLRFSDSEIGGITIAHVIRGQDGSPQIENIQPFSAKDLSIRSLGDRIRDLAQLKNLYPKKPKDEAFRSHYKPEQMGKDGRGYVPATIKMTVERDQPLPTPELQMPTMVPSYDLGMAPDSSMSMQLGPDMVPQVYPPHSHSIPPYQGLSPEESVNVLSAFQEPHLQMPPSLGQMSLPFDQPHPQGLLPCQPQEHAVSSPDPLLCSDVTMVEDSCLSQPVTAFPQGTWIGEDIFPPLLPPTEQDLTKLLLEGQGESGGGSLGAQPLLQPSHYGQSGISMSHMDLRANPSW
- test method notes: Fluorescence polarization (FP) binding assay, STAT6
- reported conditions: FP competition, 5 nM fluorescein-labeled tracer, 200 nM protein, PBS pH7.4; read-out: Binding STAT6
pKi: −log10 of the molar value.
measured parameter: pKi

Recorded pKi, per entry:
CCN(C(=O)[C@@H]1CC[C@@H]2CCN(C(C)=O)C[C@H](NC(=O)c3cc4cc(C(F)(F)P(=O)(O)O)ccc4s3)C(=O)N21)c1ccc(Cl)cc1: < 5.00
CC(C)(C)[C@H](NC(=O)c1cc2cc(C(F)(F)P(=O)(O)O)ccc2s1)C(=O)N1Cc2ccccc2C[C@H]1C(=O)N1CCOC(c2ccc(F)c(F)c2)C1 (some centres unmarked): 6.00 to 7.00
Cc1ccccc1C1CN(C(=O)[C@@H]2Cc3ccccc3CN2C(=O)[C@@H](NC(=O)c2cc3cc(C(F)(F)P(=O)(O)O)ccc3s2)C(C)(C)C)CCO1 (some centres unmarked): 6.00 to 7.00
CC(=O)N1CCN(C(=O)[C@@H](NC(=O)c2cc3cc(C(F)(F)P(=O)(O)O)ccc3s2)C(C)(C)C)[C@H](C(=O)N2CCO[C@@H](c3ccccc3)C2)C1: 5.00 to 6.00

GET pKi where system = STAT6 protein (Homo sapiens) and item = CC(C)(C)[C@H](NC(=O)c1cc2cc(C(F)(F)P(=O)(O)O)ccc2s1)C(=O)N1CCC[C@H]1C(=O)N1CC[C@@H]2CNC[C@@H]21
< 5.00
